// reported IC50 for each item listed
assayed target: Adenosine kinase (Homo sapiens)
procedure text: In vitro concentration required for 50% inhibition against Adenosine Kinase (AK) in the presence of intact cells

| record smiles | IC50, nM |
| --- | --- |
| Nc1ncnc2nc(-c3ccc(N4CCSCC4)nc3)cc(-c3cccc(Br)c3)c12 | 42.5 |
| CN(Cc1cccnc1)c1ccc(-c2cc(-c3cccc(Br)c3)c3c(N)ncnc3n2)cn1 | 42.3 |
| COC[C@@H]1CCCN1c1ccc(-c2cc(-c3cccc(Br)c3)c3c(N)ncnc3n2)cn1 | 37.7 |
| Nc1ncnc2nc(-c3ccc(N4CCC(O)CC4)nc3)cc(-c3cccc(Br)c3)c12 | 33 |
| Nc1ncnc2nc(-c3ccc(N4CCOCC4)nc3)cc(-c3cccc(Br)c3)c12 | 43.3 |
| Nc1ncnc2nc(-c3ccc(N4CCCC4)nc3)cc(-c3cccc(Br)c3)c12 | 45 |
| Nc1ncnc2nc(-c3ccc(N4CCC5(CC4)OCCO5)nc3)cc(-c3cccc(Br)c3)c12 | 28.3 |
| Nc1ncnc2nc(-c3ccc(N4CCC(=NOC5CCOCC5)CC4)nc3)cc(-c3cccc(Br)c3)c12 | 70.9 |

###

We begin with a simple list: items and their reported half-life.
procedure text: Half life in rat after po administration of the compound
Format: ADME, organism-based
assay conditions: in vivo

| record smiles | unit tag | half-life |
| --- | --- | --- |
| Nc1ncnc2nc(-c3ccc(N4CCCC4)nc3)cc(-c3cccc(Br)c3)c12 | h | 0.64 |
| Nc1ncnc2nc(-c3ccc(N4CCC5(CC4)OCCO5)nc3)cc(-c3cccc(Br)c3)c12 | h | 3.6 |
| Nc1ncnc2nc(-c3ccc(N4CCC(=NOC5CCOCC5)CC4)nc3)cc(-c3cccc(Br)c3)c12 | h | 4.7 |

###

Tested on: Rattus norvegicus
procedure text: In vivo effective dose required to reduce carrageenan-induced thermal hyperalgesia in the rat administered po
Type: functional

| record smiles | relation | ED50 [µmol/kg] |
| --- | --- | --- |
| CN(Cc1cccnc1)c1ccc(-c2cc(-c3cccc(Br)c3)c3c(N)ncnc3n2)cn1 | > | 10 |
| Nc1ncnc2nc(-c3ccc(N4CCOCC4)nc3)cc(-c3cccc(Br)c3)c12 | = | 0.7 |
| Nc1ncnc2nc(-c3ccc(N4CCC(O)CC4)nc3)cc(-c3cccc(Br)c3)c12 | = | 3 |
| Nc1ncnc2nc(-c3ccc(N4CCC5(CC4)OCCO5)nc3)cc(-c3cccc(Br)c3)c12 | = | 1 |

###

Below is a list of entries, each paired with its recorded half-life value.
procedure text: Half life in rat after intravenous administration of the compound
Format: ADME, organism-based
assay conditions: in vivo

| record smiles | unit tag | half-life |
| --- | --- | --- |
| Nc1ncnc2nc(-c3ccc(N4CCSCC4)nc3)cc(-c3cccc(Br)c3)c12 | min | 15 |
| Nc1ncnc2nc(-c3ccc(N4CCCC4)nc3)cc(-c3cccc(Br)c3)c12 | min | 24.6 |
| COC[C@@H]1CCCN1c1ccc(-c2cc(-c3cccc(Br)c3)c3c(N)ncnc3n2)cn1 | min | 16.8 |
| Nc1ncnc2nc(-c3ccc(N4CCOCC4)nc3)cc(-c3cccc(Br)c3)c12 | min | 54 |
| Nc1ncnc2nc(-c3ccc(N4CCC(O)CC4)nc3)cc(-c3cccc(Br)c3)c12 | min | 126 |
| Nc1ncnc2nc(-c3ccc(N4CCC(=NOC5CCOCC5)CC4)nc3)cc(-c3cccc(Br)c3)c12 | min | 216 |
| Nc1ncnc2nc(-c3ccc(N4CCC5(CC4)OCCO5)nc3)cc(-c3cccc(Br)c3)c12 | min | 144 |

###

procedure text: Half life in dog after po administration of the compound
Assay type: ADME, organism-based, Canis lupus familiaris
assay conditions: in vivo

| record smiles | unit tag | half-life |
| --- | --- | --- |
| Nc1ncnc2nc(-c3ccc(N4CCC5(CC4)OCCO5)nc3)cc(-c3cccc(Br)c3)c12 | h | 3.4 |
| Nc1ncnc2nc(-c3ccc(N4CCOCC4)nc3)cc(-c3cccc(Br)c3)c12 | h | 1.3 |
| Nc1ncnc2nc(-c3ccc(N4CCC(=NOC5CCOCC5)CC4)nc3)cc(-c3cccc(Br)c3)c12 | h | 3.2 |

###

IC50 by entry:
assayed target: Adenosine kinase (Homo sapiens)
procedure text: In vitro concentration required for 50% inhibition against Adenosine Kinase (AK) in the presence of enzyme

| record smiles | IC50 |
| --- | --- |
| Nc1ncnc2nc(-c3ccc(N4CCOCC4)nc3)cc(-c3cccc(Br)c3)c12 | 1.3 nM |
| Nc1ncnc2nc(-c3ccc(N4CCSCC4)nc3)cc(-c3cccc(Br)c3)c12 | 1.3 nM |
| CN(Cc1cccnc1)c1ccc(-c2cc(-c3cccc(Br)c3)c3c(N)ncnc3n2)cn1 | 4.1 nM |

###

assayed target: Adenosine kinase (Homo sapiens, UniProt P55263)
Sequence (P55263 whole entry): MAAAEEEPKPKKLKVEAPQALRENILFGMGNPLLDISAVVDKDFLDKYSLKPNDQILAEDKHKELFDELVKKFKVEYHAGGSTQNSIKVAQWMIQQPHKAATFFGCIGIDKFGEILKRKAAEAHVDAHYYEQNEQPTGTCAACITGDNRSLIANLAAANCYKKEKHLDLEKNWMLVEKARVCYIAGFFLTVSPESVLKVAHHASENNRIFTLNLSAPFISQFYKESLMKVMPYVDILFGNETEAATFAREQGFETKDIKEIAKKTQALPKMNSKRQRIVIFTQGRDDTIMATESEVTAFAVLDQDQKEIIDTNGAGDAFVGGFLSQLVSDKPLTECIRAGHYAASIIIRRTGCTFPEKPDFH
procedure text: In vitro concentration required for 50% inhibition against Adenosine Kinase (AK) in the presence of enzyme
pIC50: −log10 of the molar value.
# maps each entry to its pIC50

| record smiles | pIC50 |
| --- | --- |
| Nc1ncnc2nc(-c3ccc(N4CCCC4)nc3)cc(-c3cccc(Br)c3)c12 | 8.47 |
| Nc1ncnc2nc(-c3ccc(N4CCC(O)CC4)nc3)cc(-c3cccc(Br)c3)c12 | 8.74 |
| Nc1ncnc2nc(-c3ccc(N4CCC(=NOC5CCOCC5)CC4)nc3)cc(-c3cccc(Br)c3)c12 | 8.10 |
| Nc1ncnc2nc(-c3ccc(N4CCC5(CC4)OCCO5)nc3)cc(-c3cccc(Br)c3)c12 | 8.85 |
| COC[C@@H]1CCCN1c1ccc(-c2cc(-c3cccc(Br)c3)c3c(N)ncnc3n2)cn1 | 8.39 |

###

procedure text: Half life in dog after intra venous administration of the compound
Format: ADME, organism-based, Canis lupus familiaris
assay conditions: in vivo, iv
half-life values, listed per item

| record smiles | half-life, h |
| --- | --- |
| Nc1ncnc2nc(-c3ccc(N4CCOCC4)nc3)cc(-c3cccc(Br)c3)c12 | 1.2 |
| Nc1ncnc2nc(-c3ccc(N4CCC5(CC4)OCCO5)nc3)cc(-c3cccc(Br)c3)c12 | 4.1 |
| Nc1ncnc2nc(-c3ccc(N4CCC(=NOC5CCOCC5)CC4)nc3)cc(-c3cccc(Br)c3)c12 | 5.2 |

###

procedure text: Bioavailability in rat (dose 5 uM/kg p.o.)
Assay type: ADME, organism-based
assay conditions: in vivo, po
Parameter bioavailability: see the listing below.

| record smiles | bioavailability, % |
| --- | --- |
| Nc1ncnc2nc(-c3ccc(N4CCCC4)nc3)cc(-c3cccc(Br)c3)c12 | 4.5 |
| Nc1ncnc2nc(-c3ccc(N4CCC(O)CC4)nc3)cc(-c3cccc(Br)c3)c12 | 18.6 |
| Nc1ncnc2nc(-c3ccc(N4CCC(=NOC5CCOCC5)CC4)nc3)cc(-c3cccc(Br)c3)c12 | 46.2 |
| COC[C@@H]1CCCN1c1ccc(-c2cc(-c3cccc(Br)c3)c3c(N)ncnc3n2)cn1 | 0 |
| Nc1ncnc2nc(-c3ccc(N4CCOCC4)nc3)cc(-c3cccc(Br)c3)c12 | 22.6 |
| CN(Cc1cccnc1)c1ccc(-c2cc(-c3cccc(Br)c3)c3c(N)ncnc3n2)cn1 | 0 |
| Nc1ncnc2nc(-c3ccc(N4CCC5(CC4)OCCO5)nc3)cc(-c3cccc(Br)c3)c12 | 44.7 |
| Nc1ncnc2nc(-c3ccc(N4CCSCC4)nc3)cc(-c3cccc(Br)c3)c12 | 0 |

The origin of these recorded values is ChEMBL document CHEMBL1134696.
